Values were extracted from ChEMBL document CHEMBL4689842.

- Test system: HEK-293T
- MEASUREMENT PROTOCOL: Incucyte cell viability with HEK293T; further: filed as whole numbers so only -1 and 0 and 1 occur
- Assay type: toxicity, cell-based
- DETAILS: human, 6 h, 10 µM, compound concentration 10 uM, replicate number 1, timepoint 6 hours
METRIC NAME: Growth Rate

C[C@@H]1CN(c2cc(-c3n[nH]c4ccc(OC5(C)CC5)cc34)ncn2)C[C@H](C)O1 0
Cc1cnc(Nc2ccc(F)cc2Cl)nc1-c1c[nH]c(C(=O)N[C@H](CO)c2cccc(Cl)c2)c1 0
O=C(Nc1ccc(-c2ccnc(Nc3ccc(N4CCOCC4)cc3)n2)cc1)[C@@H]1CCCN1 0
Cc1c(NC(=O)c2cc(C(N)=O)nc3cc(F)ccc23)c(C(F)(F)F)nn1Cc1ccc(C(C)(C)C)cc1 0
c1ccc(Nc2nc3c(s2)CCCc2[nH]ncc2-3)nc1 0
O=C1O[C@]2(CC[C@H](C(=O)Nc3ccn(-c4ccccc4F)n3)CC2)c2cnccc21 0
O=c1ccn([C@@H]2O[C@H](COP(=O)([O-])OP(=O)([O-])O)[C@@H](O)[C@H]2O)c(=O)[nH]1.[Na+].[Na+] 0
Cl.O=c1c2cccn2c2ccccc2n1CCCN1CCC(c2ccc(Cl)cc2)CC1 0

----------
- System: U2OS
- MEASUREMENT PROTOCOL: Multiplex assay against U2OS
- Type: toxicity, cell-based
- DETAILS: human, 24 h, 10 µM, compound concentration 10 uM, replicate 2
# strict inequality: Population Hoechst High Intensity Objects (%) < 9% yields satisfied, everything else yields not satisfied

MOLECULE	CATEGORY
Cc1ccc(C(=O)Nc2cccc(C(F)(F)F)c2)cc1Nc1nc(-c2cccnc2)nc2c1cnn2C	not satisfied
CN(C)C(=O)C(CCN1CCC(O)(c2ccc(Cl)cc2)CC1)(c1ccccc1)c1ccccc1.Cl [LOPERAMIDE HYDROCHLORIDE]	not satisfied
CCn1cc(-c2ccnc3[nH]c(-c4cccc(CN(C)C)c4)cc23)c(-c2ccc(NC(=O)N(C)C)cc2)n1 [GSK-1070916]	not satisfied
CCN1CCN(Cc2ccc(Nc3ncc(F)c(-c4cc(F)c5nc(C)n(C(C)C)c5c4)n3)nc2)CC1.CS(=O)(=O)O	not satisfied
C=CCn1c(=O)c2cnc(Nc3ccc(N4CCN(C)CC4)cc3)nc2n1-c1cccc(C(C)(C)O)n1 [ADAVOSERTIB]	not satisfied
CNC(=O)c1ccc(Nc2nc(OC3CCCC3)c3c(-c4ccc5nc(C)oc5c4)c[nH]c3n2)c(OC)c1	not satisfied
COc1ccc(-c2ccc3c(N4CCOCC4)nc(N4C[C@@H](C)O[C@@H](C)C4)nc3n2)cc1CO [Ku-0063794]	not satisfied
CN1C2CCC1CC(OC(c1ccc(F)cc1)c1ccc(F)cc1)C2.Cl (configuration not stated)	satisfied
C=C1/C(=C\C=C2/CCC[C@]3(C)[C@@H]([C@H](C)/C=C/[C@H](C)C(C)C)CC[C@@H]23)C[C@@H](O)C[C@@H]1O [DOXERCALCIFEROL]	satisfied
CCOc1cc(C(=O)N2CCC(N3CCN(C)CC3)CC2)ccc1Nc1ncc2c(n1)N(C1CCCC1)c1ccccc1C(=O)N2C	not satisfied
O=C(Nc1ccc(Cl)cc1)Nc1cccc(-c2cccc(N3CCCC3)n2)c1	not satisfied
O=C1NC(=O)C(c2cnc3ccccn23)=C1c1cn2c3c(cc(F)cc13)CN(C(=O)N1CCCCC1)CC2 [LY-2090314]	satisfied
NC(=O)c1cccc(-c2cc(Nc3ccc(OC(F)(F)F)cc3)ncn2)c1	satisfied
CCc1cccc(CC)c1NC(=O)c1nn(C)c2c1CCc1cnc(Nc3ccc(N4CCN(C)CC4)cc3OC)nc1-2	not satisfied
S=C(NCCCc1c[nH]cn1)NCCCN(Cc1ccc(Cl)c(Cl)c1)c1ccc(Br)cn1	not satisfied
Cl.Oc1ccc2c3c1O[C@H]1c4[nH]c5c(c4C[C@@]4(O)[C@@H](C2)N(CC2CC2)CC[C@]314)C[C@@]1(O)[C@H]2Cc3ccc(O)c4c3[C@@]1(CCN2CC1CC1)[C@H]5O4	not satisfied
CCCS(=O)(=O)Nc1ccc(F)c(C(=O)c2c[nH]c3ncc(Cl)cc23)c1F [PLX-4720]	satisfied
O=C(Nc1ccc(-c2ccnc(Nc3ccc(N4CCOCC4)cc3)n2)cc1)[C@@H]1CCCN1	satisfied
COc1cc(N2CCN(C)CC2)ccc1Nc1ncc2c(n1)N(C)c1ccccc1C(=O)N2C	satisfied
O=C(Cc1ccc(-c2ccc(OCCN3CCOCC3)cc2)cn1)NCc1ccccc1 [TIRBANIBULIN]	not satisfied
O=C1N/C(=N/c2ccccc2F)S/C1=C\c1ccc(C(=O)O)cc1	satisfied
O=C(Nc1ccc(-n2nc(-c3cccnc3)cc2C(F)(F)F)cn1)c1ccc(-c2ccccc2)c(F)c1 [BI 2049]	satisfied
CCCn1c(=O)c2[nH]c(-c3cnn(Cc4cccc(C(F)(F)F)c4)c3)nc2n(CC)c1=O [GS 6201]	satisfied
COCC(=O)NC/C=C/c1ccc2ncnc(Nc3ccc(Oc4ccc(C)nc4)c(C)c3)c2c1 [CP-724714]	not satisfied
CN1CCC(=C2c3ccccc3CC(=O)c3sccc32)CC1.O=C(O)/C=C/C(=O)O [KETOTIFEN FUMARATE]	satisfied
Cc1cn(-c2cc(NC(=O)c3ccc(C)c(Nc4nccc(-c5cccnc5)n4)c3)cc(C(F)(F)F)c2)cn1 [NILOTINIB]	satisfied
CCn1c(=O)c(-c2ccc(-c3cncs3)cc2Cl)cc2cnc(Nc3ccc(N4CCN(C)CC4)cc3)nc21	satisfied
COC(=N)c1nc2ccc3ncnc(Nc4ccc(OC)cc4F)c3c2s1	satisfied
Cn1nc(C(F)(F)F)cc1-c1cnc(N2CCc3cc(S(=O)(=O)Nc4c(F)cc(Cl)cc4F)cc(N4CCCC4=O)c32)nc1 [TP-020]	satisfied
Cc1cc(C)c(S(=O)(=O)N(Cc2ccc(-c3cccc(S(C)(=O)=O)c3)cc2)Cc2ccc(C(F)(F)F)o2)c(C)c1	not satisfied

----------
Entries and their Growth Rate values follow.
- Tested on: U2OS
- MEASUREMENT PROTOCOL: Incucyte cell viability with U2OS; further: filed as whole numbers so only -1 and 0 and 1 occur
- Assay type: toxicity, cell-based
- DETAILS: human, 6 h, 10 µM, compound concentration 10 uM, replicate number 2, timepoint 6 hours
METRIC NAME: Growth Rate

COMPOUND	SUBJECT OF TEST	RESULT
N[C@@H](Cc1cc(I)c(Oc2ccc(O)c(I)c2)c(I)c1)C(=O)O [LIOTHYRONINE]	U2OS	1
CC1(C)C(=O)C(C)(C)c2cc(C(=O)Nc3ccc(C(=O)O)cc3)ccc21	U2OS	1
COc1cc(-c2cn(C)c(=O)c3cnccc23)c(OC)cc1CN(C)C	U2OS	1
CCC[C@H](Oc1cc(C)c(-n2cc(C(F)(F)F)cn2)c(C)c1)c1ccc(C(=O)NCCC(=O)O)cc1 [PF-06291874]	U2OS	0
O=C(Nc1ccc(-n2nc(-c3cccnc3)cc2C(F)(F)F)cn1)c1ccc(-c2ccccc2)c(F)c1 [BI 2049]	U2OS	1

----------
Growth Rate reference
- System: U2OS
- MEASUREMENT PROTOCOL: Incucyte cell viability with U2OS; further: filed as whole numbers so only -1 and 0 and 1 occur
- Type: toxicity, cell-based
- DETAILS: human, 24 h, 10 µM, compound concentration 10 uM, replicate number 1, timepoint 24 hours

COMPOUND	Growth Rate
COc1cc(N2CCN(C)CC2)ccc1Nc1ncc2c(n1)N(C)c1ccccc1C(=O)N2C	0
Cl.O=C([C@@H](Cc1cccc(C(F)(F)F)c1)NS(=O)(=O)c1cc(F)c2c(c1)CCNC2)N1CCCC1	1
COC(=N)c1nc2ccc3ncnc(Nc4ccc(OC)cc4F)c3c2s1	0
CCCn1c(=O)c2[nH]c(-c3cnn(Cc4cccc(C(F)(F)F)c4)c3)nc2n(CC)c1=O [GS 6201]	1
Cn1cc(CCn2cnc(-c3cnn(C)c3)c2-c2ccc(C#N)cc2)cn1	1
NC(CCP(=O)(O)O)C(=O)O (racemic)	1
O=c1ccn([C@@H]2O[C@H](COP(=O)([O-])OP(=O)([O-])O)[C@@H](O)[C@H]2O)c(=O)[nH]1.[Na+].[Na+]	1
CC(C)C[C@H](CO)Nc1nc(S[C@@H](C)c2ccccc2)nc2nc(N)sc12 [AZD-8797]	0
NC(=O)c1cccc(-c2cc(Nc3ccc(OC(F)(F)F)cc3)ncn2)c1	1
CCOc1cc2ncc(C#N)c(Nc3ccc(OCc4ccccn4)c(Cl)c3)c2cc1NC(=O)/C=C/CN(C)C [NERATINIB]	0
Cl.O=c1c2cccn2c2ccccc2n1CCCN1CCC(c2ccc(Cl)cc2)CC1	1
Cc1nnc2c3ccccc3c(N[C@@H](C)[C@H](c3ccccc3)N(C)C)nn12	1
O=C(Nc1cccnn1)N1CC(C/C=C/c2cncc(Oc3ccc(C(F)(F)F)cn3)n2)C1	1
CN1CCC(=C2c3ccccc3CC(=O)c3sccc32)CC1.O=C(O)/C=C/C(=O)O [KETOTIFEN FUMARATE]	1
CN1CCN(c2cnc3c(C4CCN(C(=O)c5ccc(OC(F)(F)F)cc5N)CC4)ncnc3c2)CC1 [BAY-885]	0
O=C(NOCC1CC1)c1ccc(F)c(F)c1Nc1ccc(I)cc1Cl [CI-1040]	0
CC[C@H](CO)Nc1nc(NCc2ccccc2)c2ncn(C(C)C)c2n1 [SELICICLIB]	0
COc1ccc(S(=O)(=O)N(CCO)c2ccccc2CN(C)C/C=C/c2ccc(Cl)cc2)cc1.O=P(O)(O)O	0
